# credit: patent US20100120762A1

biological target: PDE10A1 (AB 020593) (Homo sapiens); construct: made in house; host or cells: baculovirus / SF21 insect cells (gene synthesized by Entelechon GmbH); experiment: Inhibition of recombinant PDE10A (baculovirus/SF21 system); assay type: biochemical; conditions: recombinant cytosolic PDE10A, 0.1 μM [3H]-cAMP, 37° C., 30 minutes, SPA; read-out: PDE10A IC50
Sequence (Q9Y233 other isoform, or with tags, fused parts or gaps): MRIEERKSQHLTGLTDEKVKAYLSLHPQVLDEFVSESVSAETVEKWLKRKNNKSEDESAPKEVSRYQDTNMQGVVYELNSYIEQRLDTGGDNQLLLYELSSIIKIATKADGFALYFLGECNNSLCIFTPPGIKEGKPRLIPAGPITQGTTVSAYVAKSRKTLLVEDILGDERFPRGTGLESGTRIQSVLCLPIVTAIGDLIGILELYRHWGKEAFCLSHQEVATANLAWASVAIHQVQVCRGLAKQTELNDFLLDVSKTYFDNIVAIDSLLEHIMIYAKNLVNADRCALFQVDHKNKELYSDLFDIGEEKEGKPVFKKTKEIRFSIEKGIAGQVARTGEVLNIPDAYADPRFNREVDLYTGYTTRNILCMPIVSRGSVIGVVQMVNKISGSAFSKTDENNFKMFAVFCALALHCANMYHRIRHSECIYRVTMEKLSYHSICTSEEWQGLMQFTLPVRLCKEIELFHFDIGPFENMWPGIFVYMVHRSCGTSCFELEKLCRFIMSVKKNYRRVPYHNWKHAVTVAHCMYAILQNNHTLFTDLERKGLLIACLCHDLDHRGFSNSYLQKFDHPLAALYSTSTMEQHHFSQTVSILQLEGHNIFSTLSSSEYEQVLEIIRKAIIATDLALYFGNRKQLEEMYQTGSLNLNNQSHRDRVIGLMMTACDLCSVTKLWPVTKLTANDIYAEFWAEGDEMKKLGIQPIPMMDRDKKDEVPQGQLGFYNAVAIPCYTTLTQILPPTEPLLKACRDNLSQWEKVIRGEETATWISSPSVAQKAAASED
Catalogue of log10(IC50) readings, one per entry.
quantity: log10(IC50) (log10 of the value in nM)

COc1ccc2nnc3c(C)nc(-c4ccccn4)n3c2n1 = 3.58
COc1ccc2nnc3c(C)nc(-c4cc(Cl)cnc4OC)n3c2n1 = 2.46
COc1ccc2nnc3c(C)nc(CC(C)C)n3c2n1 = 1.11
COc1ccc2nnc3c(C)nc(-c4cccc(OCC(F)(F)F)c4)n3c2n1 = 2.53
COc1ccc2nnc3c(C)nc(-c4ccccc4)n3c2n1 = 2.12
COc1ccc2nnc3c(C)nc(-c4cccc(OC)c4Cl)n3c2n1 = 2.06
COc1ccc2nnc3c(C)nc(-c4cc(Cl)cc(Cl)c4)n3c2n1 = 2.52
COc1ccc2nnc3c(C)nc(-c4cccc(OC(C)C)c4)n3c2n1 = 3.25
COc1ccc2nnc3c(C)nc(-c4cncc(C)c4)n3c2n1 = 1.71
COc1ccc2nnc3c(C)nc(-c4cc(C(C)C)ccc4OC)n3c2n1 = 3.52
